target_system: T1, human neonatal Fc receptor (hFcRn) (human, UniProt P55899 24-290; P61769 21-119)
T1 construct: Biotinylated in the ELISA, Octet and yeast assays; also called human FcRn; huFcRn
T1 sequence (P55899 24-290 limits assumed, chain 1 of 2): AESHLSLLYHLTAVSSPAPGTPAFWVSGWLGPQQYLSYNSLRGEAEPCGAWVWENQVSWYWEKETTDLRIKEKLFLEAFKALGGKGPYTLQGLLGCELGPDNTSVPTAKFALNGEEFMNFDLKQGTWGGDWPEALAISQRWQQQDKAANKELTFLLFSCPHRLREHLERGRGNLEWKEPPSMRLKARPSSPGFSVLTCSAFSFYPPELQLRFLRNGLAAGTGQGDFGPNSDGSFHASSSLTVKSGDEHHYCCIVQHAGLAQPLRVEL
T1 sequence (P61769 21-119 limits assumed, chain 2 of 2): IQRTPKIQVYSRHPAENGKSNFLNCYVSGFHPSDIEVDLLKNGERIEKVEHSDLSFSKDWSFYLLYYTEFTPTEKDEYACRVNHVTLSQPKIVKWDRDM
protocol_description: phage ELISA pH 7.4;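 note: higher score means stronger binding and above about 3 to 5 exceeds background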
outcome_measure: ELISA score

>>> endpoint_value("L5 isolate with insertion SEQ ID NO: 475 (other) EPKSCDKTHTCPPCPAPELLGGPSVFLFPPKPKDTLMISRTPEVTCVVVDVSHEDPEVKFNWYVDGVEVHNAKTKPREEQYNSTYRVVSVLTVLHQDWLNGKEYKCKVSNKALPAPIEKTISKAKGQPREPQVYTLPPSRDELTKNQVSLTCLVKGFYPSDIAVEWESNGGCLGLRQECGGGQPENNYKTTPPVLDSDGSFFLYSKLTVDKSRWQQGNVFSCSVMHEALHNHYTQKSLSLSPGK")
1.6

# input for lookup
Looking for the measured ELISA score of variant Fc-fragment Fc-5-66 (other, soluble elsewhere) EPKSCDKTHTCPPCPAPELLGGPSVFLFPPKPKDTLMISRTPEVTCVVVDVSHEDPEVKFNWYVDGVEVHNAKTKPREEQYNSTYRVVSVLTVLHQDWLNGKEYKCKVSNKALPAPIEKTISKAKGQPREPQVYTLPPSRDELTKNQVSLTCLVKGFYPSDIAVEWESNGGCERFHHACGGGQPENNYKTTPPVLDSDGSFFLYSKLTVDKSRWQQGNVFSCSVMHEALHNHYTQKSLSLSPGK , can you help?
0.5
